Molecular target: Receptor tyrosine-protein kinase erbB-4 (Homo sapiens) (UniProt Q15303)
Sequence (Q15303 whole entry): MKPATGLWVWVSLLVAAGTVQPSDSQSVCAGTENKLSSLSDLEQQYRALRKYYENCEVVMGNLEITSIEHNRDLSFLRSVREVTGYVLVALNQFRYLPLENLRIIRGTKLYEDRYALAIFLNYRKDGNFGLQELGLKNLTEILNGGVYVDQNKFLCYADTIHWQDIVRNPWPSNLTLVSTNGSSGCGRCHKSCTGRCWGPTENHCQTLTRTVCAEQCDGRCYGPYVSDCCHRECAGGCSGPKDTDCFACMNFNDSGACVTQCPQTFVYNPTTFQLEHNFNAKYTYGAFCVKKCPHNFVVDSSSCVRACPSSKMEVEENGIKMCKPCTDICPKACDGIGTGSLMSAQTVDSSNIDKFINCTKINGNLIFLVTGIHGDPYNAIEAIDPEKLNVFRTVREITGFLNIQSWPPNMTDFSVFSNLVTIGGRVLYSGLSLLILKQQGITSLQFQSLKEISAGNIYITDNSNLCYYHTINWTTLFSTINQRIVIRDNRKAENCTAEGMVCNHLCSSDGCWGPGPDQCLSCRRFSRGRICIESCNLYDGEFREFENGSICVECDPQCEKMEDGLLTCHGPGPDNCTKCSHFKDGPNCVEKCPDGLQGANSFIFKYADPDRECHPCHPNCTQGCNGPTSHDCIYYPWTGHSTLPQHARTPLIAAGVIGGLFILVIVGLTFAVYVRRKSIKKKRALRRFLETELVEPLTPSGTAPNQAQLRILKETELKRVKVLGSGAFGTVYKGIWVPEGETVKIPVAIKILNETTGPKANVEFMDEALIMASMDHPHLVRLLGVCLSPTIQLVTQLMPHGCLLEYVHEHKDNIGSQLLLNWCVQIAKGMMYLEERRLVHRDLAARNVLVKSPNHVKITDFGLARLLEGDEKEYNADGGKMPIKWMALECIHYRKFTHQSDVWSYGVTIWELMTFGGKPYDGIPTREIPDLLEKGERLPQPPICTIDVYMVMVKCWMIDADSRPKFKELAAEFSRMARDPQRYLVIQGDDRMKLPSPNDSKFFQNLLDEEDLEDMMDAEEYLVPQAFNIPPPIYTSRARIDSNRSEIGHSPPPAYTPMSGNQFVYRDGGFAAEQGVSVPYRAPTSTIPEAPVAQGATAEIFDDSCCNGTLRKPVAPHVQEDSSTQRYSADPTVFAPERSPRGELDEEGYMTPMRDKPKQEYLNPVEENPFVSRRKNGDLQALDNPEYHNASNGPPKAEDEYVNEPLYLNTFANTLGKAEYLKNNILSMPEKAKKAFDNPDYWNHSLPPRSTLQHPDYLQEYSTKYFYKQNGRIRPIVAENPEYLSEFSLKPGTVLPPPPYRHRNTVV
Assay: Inhibition of ERBB4 (unknown origin) at 500 nM
MEASURED QUANTITY: inhibition

Observe how each entry below is paired with its result.
Req: Please give the measured inhibition for this molecule: CN(C)CCNC(=O)c1ccc(-c2cc3c(N[C@H](CO)c4ccccc4)ncnc3s2)cc1
Resp: 30%

Req: Data request, read-out inhibition, for COc1ccc(C(=O)NCCN(C)C)cc1-c1cc2c(N[C@H](C)c3ccccc3)ncnc2s1
Resp: 46%

Req: Any idea what inhibition was measured for C#Cc1cccc(Nc2ncnc3cc(OCCOC)c(OCCOC)cc23)c1 [ERLOTINIB] ?
Resp: 78%

Req: # inhibition lookup, item COc1cc(CO)ccc1-c1cc2c(Nc3ccccc3)ncnc2s1
Resp: 22%

New cases:
Req: Could you tell me which inhibition is on file for COc1cc(CO)ccc1-c1cc2c(N[C@H](CO)c3ccccc3)ncnc2s1 ?
Resp: 63%

Req: Could you tell me which inhibition is on file for COc1cc(CO)ccc1-c1cc2c(N[C@H](C)c3ccccc3)ncnc2s1 ?
Resp: 30%

Req: # lookup: inhibition of COc1cc(C(N)=O)ccc1-c1cc2c(N[C@H](CO)c3ccccc3)ncnc2s1
Resp: 62%

Req: Entry under review: C[C@@H](Nc1ncnc2sc(-c3ccccc3C(N)=O)cc12)c1ccccc1 . Reported inhibition?
Resp: 10%
